# experiment: log P by HPLC on reversed-phase column (C18), EEC Directive 79/831 Annex V.A8
# Assay type: physicochemical
# measurement-parameters: C18, 40° C., 0.1% aqueous formic acid and acetonitrile, gradient 10% to 90% acetonitrile
# Procedure: Temperature: 40° C.; Mobile phases: 0.1% aqueous formic acid and acetonitrile; linear gradient from 10% acetonitrile to 90% acetonitrile.
hey, just use label 1 if measured logP is less than 1, otherwise label 0

[
  {
    "compound": "COc1ccnc(CN(C(=O)c2cn(C)nc2OC)C2CC2)c1OC",
    "cat": "label 1"
  },
  {
    "compound": "Cn1cc(C(=O)N(Cc2ccc(Cl)cn2)C2CC2)c(C(F)F)n1",
    "cat": "label 0"
  },
  {
    "compound": "Cc1nn(C)cc1C(=O)N(Cc1c(Cl)cncc1Cl)C1CC1",
    "cat": "label 0"
  },
  {
    "compound": "CC(c1cnc(Cl)c(Cl)c1)N(C(=O)c1cn(C)nc1C(F)F)C1CC1 (centres unmarked)",
    "cat": "label 0"
  },
  {
    "compound": "Cc1ncoc1C(=O)N(C1CC1)C(C)c1cnccn1 (centres unmarked)",
    "cat": "label 0"
  }
]

====

# experiment: log P by HPLC on reversed-phase column (C18), EEC Directive 79/831 Annex V.A8
# Type: physicochemical
# measurement-parameters: C18, 40° C., 0.1% aqueous formic acid and acetonitrile, gradient 10% to 90% acetonitrile
Classify by measured logP: T if it is equal to or exceeds 2, F if it is smaller.

[
  {
    "molecule": "Cc1nn(C)c(F)c1C(=O)N(C1CC1)C(C)c1cnc(Cl)c(Cl)c1 (centres unmarked)",
    "cat": "T"
  },
  {
    "molecule": "Cc1nc(C(F)(F)F)c(C(=O)N(Cc2ccncc2)C2CC2)s1",
    "cat": "F"
  },
  {
    "molecule": "CC(c1cnccn1)N(C(=O)c1ccsc1I)C1CC1 (centres unmarked)",
    "cat": "T"
  },
  {
    "molecule": "COc1nn(C)cc1C(=O)N(Cc1ccc(Cl)nc1)C1CC1",
    "cat": "F"
  }
]
